assay: Open-label randomized pharmacokinetic drug-drug interaction study: plasma PK of Compound A alone or with phenytoin; assay type: in vivo, human; conditions: human, plasma, po, 100 mg, Compound A 100 mg single oral dose with phenytoin 100 mg TID for 10 days (Day 12), full sampling; read-out: time to peak plasma concentrations (Tmax)
quantity measured: Tmax

| compound | result |
| --- | --- |
| Cc1cc(S(=O)(=O)Nc2cscn2)c(F)cc1N(C)[C@H]1CCN(Cc2ccccc2)C1 [Compound A] | ~1 h |

###

test: Open-label randomized pharmacokinetic drug-drug interaction study: plasma PK of Compound A alone or with phenytoin; format: in vivo, human; conditions: human, plasma, oral, 100 mg, Compound A with phenytoin 100 mg TID x 10 days, truncated sampling
quantity measured: AUC

| query smiles | result |
| --- | --- |
| Cc1cc(S(=O)(=O)Nc2cscn2)c(F)cc1N(C)[C@H]1CCN(Cc2ccccc2)C1 | 18600 ng·h/mL |

###

test: Open-label randomized pharmacokinetic drug-drug interaction study: plasma PK of Compound A alone or with phenytoin; assay type: in vivo, human; details: human, plasma, oral, 100 mg, Compound A 100 mg alone, plasma, full sampling; read-out: mean Cmax

| query smiles | Cmax [ng/mL] |
| --- | --- |
| Cc1cc(S(=O)(=O)Nc2cscn2)c(F)cc1N(C)[C@H]1CCN(Cc2ccccc2)C1 | 3300 |

###

experiment: Open-label randomized pharmacokinetic drug-drug interaction study: plasma PK of Compound A alone or with phenytoin; type: in vivo, human; settings: human, plasma, oral; Compound A 100 mg alone; read-out: mean AUC0-inf
quantity measured: AUC(0-inf) (ng·h/mL)

| query smiles | result |
| --- | --- |
| Cc1cc(S(=O)(=O)Nc2cscn2)c(F)cc1N(C)[C@H]1CCN(Cc2ccccc2)C1 | 19800 |

###

Experiment: Open-label randomized pharmacokinetic drug-drug interaction study: plasma PK of Compound A alone or with phenytoin
Format: in vivo, human
Conditions: human, plasma, po, 100 mg, Compound A alone; read-out: elimination half-life (converted)
Experimental: In this open-label, randomized study, subjects received the following treatments: • Two single oral doses of 100 mg (2×50 mg) Compound A adult immediate release tablet formulation, fasted state, administered on Day 1 and Day 12. • Repeat doses of phenytoin 100 mg TID for 10 days (from Day 3 until the morning of Day 12). Subjects fasted overnight for a minimum of 10 hours prior to dosing on Day 1 and Day 12. […]

| query smiles | scale unit | half-life |
| --- | --- | --- |
| Cc1cc(S(=O)(=O)Nc2cscn2)c(F)cc1N(C)[C@H]1CCN(Cc2ccccc2)C1 | h | 10 |

###

assay: Open-label randomized pharmacokinetic drug-drug interaction study: plasma PK of Compound A alone or with phenytoin; format: in vivo, human; details: human, plasma, po, 100 mg, Compound A 100 mg single oral dose alone (Day 1), fasted, full sampling; read-out: time to peak plasma concentrations (Tmax)
quantity measured: Tmax

| query smiles | result |
| --- | --- |
| Cc1cc(S(=O)(=O)Nc2cscn2)c(F)cc1N(C)[C@H]1CCN(Cc2ccccc2)C1 | ~1 h |

###

Assay: Open-label randomized pharmacokinetic drug-drug interaction study: plasma PK of Compound A alone or with phenytoin
Type: in vivo, human
Conditions: human, plasma, oral, 100 mg, Compound A 100 mg with phenytoin 100 mg TID x 10 days, plasma, full sampling; read-out: mean Cmax
Procedure: In this open-label, randomized study, subjects received the following treatments: • Two single oral doses of 100 mg (2×50 mg) Compound A adult immediate release tablet formulation, fasted state, administered on Day 1 and Day 12. • Repeat doses of phenytoin 100 mg TID for 10 days (from Day 3 until the morning of Day 12). Subjects fasted overnight for a minimum of 10 hours prior to dosing on Day 1 and Day 12. […]

| compound | scale unit | Cmax |
| --- | --- | --- |
| Cc1cc(S(=O)(=O)Nc2cscn2)c(F)cc1N(C)[C@H]1CCN(Cc2ccccc2)C1 [Compound A] | ng/mL | 3720 |
